Where these numbers come from: paper PMC11813896

target: recombinant hMAO-B (Homo sapiens); construct: purchased Sigma-Aldrich; experiment: biochemical; details: mean ± SD; read-out: IC50 (nM) for monoamine oxidases hMAO-B
Sequence (P27338 whole entry): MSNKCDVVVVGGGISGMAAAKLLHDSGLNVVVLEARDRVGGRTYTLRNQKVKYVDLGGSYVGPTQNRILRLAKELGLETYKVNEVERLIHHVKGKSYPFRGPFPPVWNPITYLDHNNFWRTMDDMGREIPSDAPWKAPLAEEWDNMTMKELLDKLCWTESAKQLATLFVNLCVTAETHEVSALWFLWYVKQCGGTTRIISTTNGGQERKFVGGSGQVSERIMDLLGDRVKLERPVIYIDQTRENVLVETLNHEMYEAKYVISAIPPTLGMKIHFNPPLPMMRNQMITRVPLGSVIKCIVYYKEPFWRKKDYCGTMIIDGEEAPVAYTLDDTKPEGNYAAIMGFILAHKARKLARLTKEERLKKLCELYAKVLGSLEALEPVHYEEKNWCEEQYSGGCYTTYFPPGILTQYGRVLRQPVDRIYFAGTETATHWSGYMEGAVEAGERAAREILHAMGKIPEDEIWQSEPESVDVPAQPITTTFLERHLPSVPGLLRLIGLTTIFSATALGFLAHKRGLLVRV
Quantity Measured: log10 of IC50 (log10 of the value in nM)
Plainly stated, the numbers are log10 of IC50 given in nM.

Example compounds with recorded log10 of IC50:
| Compound | log10 of IC50 |
| --- | --- |
| C=CCn1c2cc(OCCCCCCOc3ccc4c5ccnc(C)c5n(CC=C)c4c3)ccc2c2ccnc(C)c21 [Compound 6d] | 2.28 |
| CCCn1c2cc(OCCCCCCCCOc3ccc4c5ccnc(C)c5n(CCC)c4c3)ccc2c2ccnc(C)c21 [Compound 8c] | 2.18 |
| CCCn1c2cc(OCCCCCCOc3ccc4c5ccnc(C)c5n(CCC)c4c3)ccc2c2ccnc(C)c21 [Compound 6c] | 2.72 |
| C=CCn1c2cc(OCCCCCCCCOc3ccc4c5ccnc(C)c5n(CC=C)c4c3)ccc2c2ccnc(C)c21 [Compound 8d] | 2.53 |
| Cc1nccc2c3ccc(OCCCCCCCCOc4ccc5c6ccnc(C)c6n(C)c5c4)cc3n(C)c12 [Compound 8a] | 2.98 |

If you can, please state the reported log10 of IC50 value of Cc1nccc2c3ccc(OCCCCCCOc4ccc5c6ccnc(C)c6n(C)c5c4)cc3n(C)c12 [Compound 6a] .
2.94

Find the recorded log10 of IC50 belonging to Cc1nccc2c3ccc(OCCCCCCCOc4ccc5c6ccnc(C)c6n(C)c5c4)cc3n(C)c12 [Compound 7a] and report it.
2.45

Fill in the blank: the reported log10 of IC50 of CCn1c2cc(OCCCCCCCOc3ccc4c5ccnc(C)c5n(CC)c4c3)ccc2c2ccnc(C)c21 [Compound 7b] is ____.
1.90

Which log10 of IC50 is listed for C=CCn1c2cc(OCCCCCCCOc3ccc4c5ccnc(C)c5n(CC=C)c4c3)ccc2c2ccnc(C)c21 [Compound 7d] ?
1.10

I am curious: what log10 of IC50 value has been reported for CCn1c2cc(OCCCCCCCCOc3ccc4c5ccnc(C)c5n(CC)c4c3)ccc2c2ccnc(C)c21 [Compound 8b] ?
2.88

====

biological target: hBuChE (Homo sapiens, UniProt P06276); test: Ellman's assay, hBuChE inhibition; format: biochemical; settings: Mean ± SD from 3-5 assays; read-out: IC50 (nM) for cholinesterase hBuChE
Sequence (P06276 29-602): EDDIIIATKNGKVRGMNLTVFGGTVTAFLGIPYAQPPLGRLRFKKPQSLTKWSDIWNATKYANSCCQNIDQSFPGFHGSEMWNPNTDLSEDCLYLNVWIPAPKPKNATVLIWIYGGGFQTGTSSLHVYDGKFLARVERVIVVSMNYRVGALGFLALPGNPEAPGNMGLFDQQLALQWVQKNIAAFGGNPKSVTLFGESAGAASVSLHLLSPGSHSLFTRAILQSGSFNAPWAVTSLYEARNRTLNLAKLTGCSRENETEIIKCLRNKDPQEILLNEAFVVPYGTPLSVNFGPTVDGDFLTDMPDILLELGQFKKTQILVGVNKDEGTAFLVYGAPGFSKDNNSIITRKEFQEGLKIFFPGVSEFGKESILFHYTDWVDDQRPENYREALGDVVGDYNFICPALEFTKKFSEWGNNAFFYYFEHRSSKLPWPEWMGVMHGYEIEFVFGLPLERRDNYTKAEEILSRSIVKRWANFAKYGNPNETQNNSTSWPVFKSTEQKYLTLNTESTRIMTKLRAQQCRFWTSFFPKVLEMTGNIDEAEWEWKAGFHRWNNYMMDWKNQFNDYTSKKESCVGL
Classes are defined on IC50 with ranges low bin = under 100 nM, mid bin = from 100 nM up to 900 nM, high bin = 900 nM and over

See these solved cases before continuing.
| Query Smiles | Assigned Class |
| --- | --- |
| CCn1c2cc(OCCCCCOc3ccc4c5ccnc(C)c5n(CC)c4c3)ccc2c2ccnc(C)c21 | high bin |
| Cc1nccc2c3ccc(OCCCCCOc4ccc5c6ccnc(C)c6n(C)c5c4)cc3n(C)c12 | mid bin |
| C=CCn1c2cc(OCCCCCCCOc3ccc4c5ccnc(C)c5n(CC=C)c4c3)ccc2c2ccnc(C)c21 | low bin |
| CCn1c2cc(OCCCCCCOc3ccc4c5ccnc(C)c5n(CC)c4c3)ccc2c2ccnc(C)c21 | low bin |
| Cc1nccc2c3ccc(OCCCCCCOc4ccc5c6ccnc(C)c6n(C)c5c4)cc3n(C)c12 | mid bin |
| CCn1c2cc(OCCCCCCCCOc3ccc4c5ccnc(C)c5n(CC)c4c3)ccc2c2ccnc(C)c21 | mid bin |
| CCCn1c2cc(OCCCCOc3ccc4c5ccnc(C)c5n(CCC)c4c3)ccc2c2ccnc(C)c21 | mid bin |

Which IC50 band matches CCCn1c2cc(OCCCCCCOc3ccc4c5ccnc(C)c5n(CCC)c4c3)ccc2c2ccnc(C)c21 ?
high bin

====

target: hAChE (Homo sapiens); experiment: biochemical
Sequence (P22303 32-614): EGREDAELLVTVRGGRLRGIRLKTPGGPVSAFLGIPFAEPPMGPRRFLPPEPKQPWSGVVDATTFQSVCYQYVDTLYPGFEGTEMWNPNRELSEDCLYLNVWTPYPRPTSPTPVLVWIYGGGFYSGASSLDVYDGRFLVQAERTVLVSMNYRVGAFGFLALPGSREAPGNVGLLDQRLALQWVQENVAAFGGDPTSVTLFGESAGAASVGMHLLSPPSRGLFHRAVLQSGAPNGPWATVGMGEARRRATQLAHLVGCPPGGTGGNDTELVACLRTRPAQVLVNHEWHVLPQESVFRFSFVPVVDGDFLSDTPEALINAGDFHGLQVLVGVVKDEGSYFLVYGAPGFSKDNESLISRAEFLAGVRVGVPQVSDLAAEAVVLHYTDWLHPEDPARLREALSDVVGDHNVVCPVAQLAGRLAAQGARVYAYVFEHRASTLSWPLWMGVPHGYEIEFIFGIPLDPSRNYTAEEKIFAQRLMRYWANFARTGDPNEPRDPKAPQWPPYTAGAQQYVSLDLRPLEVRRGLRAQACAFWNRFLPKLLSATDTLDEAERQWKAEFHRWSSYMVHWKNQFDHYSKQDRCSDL
Hi, to clarify the labels: met covers S.I. Selectivity index IC50(hBuChE)/IC50(hAChE) from 2 upward, not met covers anything below 2.

The following compounds have reported results that may help.
| Query Smiles | Assayed System | Assigned Class |
| --- | --- | --- |
| CCCn1c2cc(OCCCCCCCOc3ccc4c5ccnc(C)c5n(CCC)c4c3)ccc2c2ccnc(C)c21 | hAChE (Homo sapiens) | met |
| CCn1c2cc(OCCCCCOc3ccc4c5ccnc(C)c5n(CC)c4c3)ccc2c2ccnc(C)c21 | hAChE (Homo sapiens) | met |

Assess whether reported S.I. Selectivity index IC50(hBuChE)/IC50(hAChE) for CCn1c2cc(OCCCCOc3ccc4c5ccnc(C)c5n(CC)c4c3)ccc2c2ccnc(C)c21 sits at 2 or higher.
met

Is the recorded value of S.I. Selectivity index IC50(hBuChE)/IC50(hAChE) equal to or greater than 2 for this compound? Cc1nccc2c3ccc(OCCCCCCCOc4ccc5c6ccnc(C)c6n(C)c5c4)cc3n(C)c12
met

Does S.I. Selectivity index IC50(hBuChE)/IC50(hAChE) meet or surpass 2 for CCCn1c2cc(OCCCCCOc3ccc4c5ccnc(C)c5n(CCC)c4c3)ccc2c2ccnc(C)c21 ?
met

Test whether the compound CCCn1c2cc(OCCCCOc3ccc4c5ccnc(C)c5n(CCC)c4c3)ccc2c2ccnc(C)c21 records S.I. Selectivity index IC50(hBuChE)/IC50(hAChE) of 2 or higher.
met

====

biological target: recombinant hMAO-A (Homo sapiens); construct: purchased Sigma-Aldrich; assay: biochemical; conditions: mean ± SD; read-out: IC50 (nM) for monoamine oxidases hMAO-A
Sequence (P21397 whole entry): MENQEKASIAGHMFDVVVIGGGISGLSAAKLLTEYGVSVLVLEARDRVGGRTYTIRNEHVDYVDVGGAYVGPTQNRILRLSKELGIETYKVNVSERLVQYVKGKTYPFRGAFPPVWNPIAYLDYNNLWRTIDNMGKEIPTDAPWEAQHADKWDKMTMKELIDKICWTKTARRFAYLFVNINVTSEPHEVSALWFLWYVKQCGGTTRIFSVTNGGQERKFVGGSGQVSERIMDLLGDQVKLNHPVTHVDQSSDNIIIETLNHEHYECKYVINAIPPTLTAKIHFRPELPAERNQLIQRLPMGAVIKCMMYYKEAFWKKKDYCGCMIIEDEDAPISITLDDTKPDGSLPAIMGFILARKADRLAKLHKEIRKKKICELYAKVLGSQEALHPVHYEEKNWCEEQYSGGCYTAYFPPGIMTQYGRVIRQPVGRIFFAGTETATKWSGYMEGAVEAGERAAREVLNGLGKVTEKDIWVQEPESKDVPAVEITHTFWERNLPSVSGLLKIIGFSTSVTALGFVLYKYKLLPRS
Measured IC50 values are reported for all entries that follow.
# do not omit the unit; it follows the number

Example cases with answers are listed next.
| Compound | Assayed System | Meas Value |
| --- | --- | --- |
| CCn1c2cc(OCCCCCCOc3ccc4c5ccnc(C)c5n(CC)c4c3)ccc2c2ccnc(C)c21 [Compound 6b] | recombinant hMAO-A (Homo sapiens) | 893 nM |
| CCn1c2cc(OCCCCCCCOc3ccc4c5ccnc(C)c5n(CC)c4c3)ccc2c2ccnc(C)c21 [Compound 7b] | recombinant hMAO-A (Homo sapiens) | 150 nM |
| CCCn1c2cc(OCCCCCCCCOc3ccc4c5ccnc(C)c5n(CCC)c4c3)ccc2c2ccnc(C)c21 [Compound 8c] | recombinant hMAO-A (Homo sapiens) | 16.4 nM |

Now take the following compound into account.
Field request: IC50 | item: CCCn1c2cc(OCCCCCCOc3ccc4c5ccnc(C)c5n(CCC)c4c3)ccc2c2ccnc(C)c21 [Compound 6c]
21 nM

====

In this section, each of the molecules is paired with its reported inhibition at 1 µM.
Biological target: recombinant hMAO-B (Homo sapiens)
Construct: purchased Sigma-Aldrich
Experiment: biochemical
Settings: compound at 1 μM; read-out: inhibition of hMAO-B in primary screening
Method: Briefly, the compounds under investigation and the reference inhibitor were preincubated with kynuramine at 37°C for 10 min in 96-well microplates. […] Subsequently, the concentrations of MAOs that produced 4-hydroxyquinoline were determined by measuring the fluorescence of the supernatant using a Varioskan Flash Multimode Reader ([…]) with excitation and emission wavelengths set at 310 nm and 400 nm, respectively. […]
Provide only the numeric value, understood in %.

| Query Smiles | inhibition at 1 µM [%] |
| --- | --- |
| Cc1nccc2c3ccc(OCCCCCOc4ccc5c6ccnc(C)c6n(C)c5c4)cc3n(C)c12 | 25.6 |

# input molecule: CCn1c2cc(OCCCCOc3ccc4c5ccnc(C)c5n(CC)c4c3)ccc2c2ccnc(C)c21 ; wanted: its inhibition at 1 µM
28.6

Recorded inhibition at 1 µM of CCn1c2cc(OCCCCCCOc3ccc4c5ccnc(C)c5n(CC)c4c3)ccc2c2ccnc(C)c21 , please.
41.2

Quick one: inhibition at 1 µM of CCCn1c2cc(OCCCCCOc3ccc4c5ccnc(C)c5n(CCC)c4c3)ccc2c2ccnc(C)c21 ?
27.5

====

target: recombinant hMAO-A (Homo sapiens); construct: purchased Sigma-Aldrich; test: biochemical
Quantity Measured: S.I. Selectivity index IC50(hMAO-B)/IC50(hMAO-A)

Example entries and their recorded answers appear below.
| Compound | Assayed System | Meas Value |
| --- | --- | --- |
| CCn1c2cc(OCCCCCCOc3ccc4c5ccnc(C)c5n(CC)c4c3)ccc2c2ccnc(C)c21 [Compound 6b] | recombinant hMAO-A (Homo sapiens) | >1.1 |
| CCCn1c2cc(OCCCCCCCOc3ccc4c5ccnc(C)c5n(CCC)c4c3)ccc2c2ccnc(C)c21 [Compound 7c] | recombinant hMAO-A (Homo sapiens) | >111.1 |

Now turn to the next compound.
Name the reported S.I. Selectivity index IC50(hMAO-B)/IC50(hMAO-A) value associated with the compound Cc1nccc2c3ccc(OCCCCCOc4ccc5c6ccnc(C)c6n(C)c5c4)cc3n(C)c12 [Compound 5a]
>4.1

====

Target: Aβ 1−42 (Homo sapiens)
Sequence (P05067 672-713 limits assumed): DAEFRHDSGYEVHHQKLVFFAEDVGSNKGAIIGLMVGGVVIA
Test: Thioflavin T fluorescence assay, Aβ 1−42 self-aggregation
Format: biochemical
Conditions: Aβ 1-42 20 μM, 37°C, 24 h
Description: The thioflavin T (Th-T) fluorescence assay was used to assess the inhibition of Aβ 1−42 self-aggregation. […] Subsequently, the reaction was terminated to a final volume of 200 μL using Th-T (10 μM) solution.
Quantity Measured: IC50 (µM)
Field: numeric (µM). Do not append units.

| Query Smiles | Meas Value |
| --- | --- |
| CCn1c2cc(OCCCCCCCCOc3ccc4c5ccnc(C)c5n(CC)c4c3)ccc2c2ccnc(C)c21 | 18.7 |
| C=CCn1c2cc(OCCCCCCCOc3ccc4c5ccnc(C)c5n(CC=C)c4c3)ccc2c2ccnc(C)c21 | 17.1 |

Look up IC50: Cc1nccc2c3ccc(OCCCCCCCOc4ccc5c6ccnc(C)c6n(C)c5c4)cc3n(C)c12
6.3
